Test system: CHEAL (Lambsquarters, Common)
Assay: Preemergence herbicidal evaluation
Format: in vivo, Chenopodium album
Conditions: rate 0.0625 kg/ha; rated 4-5 weeks after treatment; rating scale 0-9
Listing of entries alongside the reported Preemergence herbicidal rating CHEAL.
Answer as a number with no unit attached.

>>> print(df.to_string())
                                  structure                          readout_name  observed
0  Cn1c(C(F)(F)F)cc(=O)n(-c2cc(N=C3SCC(=O)N3Cc3cccc(C(F)(F)F)c3)c(Cl)cc2F)c1=O  Preemergence herbicidal rating CHEAL       9.0

Incoming: Reported Preemergence herbicidal rating CHEAL, compound `CSCCN1C(=O)CSC1=Nc1cc(-n2c(=O)cc(C(F)(F)F)n(C)c2=O)c(F)cc1Cl` : ____
Outgoing: 0.0

Incoming: I have this compound here, `COc1ccc(CN2C(=O)CSC2=Nc2cc(-n3c(=O)cc(C(F)(F)F)n(C)c3=O)c(F)cc2Cl)c(OC)c1` , and I need its recorded Preemergence herbicidal rating CHEAL.
Outgoing: 9.0

Incoming: # input compound: `Cn1c(C(F)(F)F)cc(=O)n(-c2cc(N=C3SCC(=O)N3Cc3ccc(S(N)(=O)=O)cc3)c(Cl)cc2F)c1=O` ; wanted: its Preemergence herbicidal rating CHEAL
Outgoing: 9.0

Incoming: Dear colleague, I am looking for the recorded Preemergence herbicidal rating CHEAL of the following compound: `Cn1c(C(F)(F)F)cc(=O)n(-c2cc(N=C3SCC(=O)N3Cc3ccc(Cl)cc3)c(Cl)cc2F)c1=O`
Outgoing: 7.0

###

This listing pairs compounds with measured CASOB herbicidal rating.
Test system: CASOB (Sicklepod)
Assay: Postemergence herbicidal evaluation
Format: in vivo, Cassia obtusifolia
Conditions: postemergence, rate 0.0625 kg/ha
The response must contain the number and no unit.

See these solved cases before continuing.
>>> print(df.to_string())
                                   compound             readout_name  observed
0  CC1SC(=Nc2cc(-n3c(=O)cc(C(F)(F)F)n(C)c3=O)c(F)cc2Cl)N(C)C1=O (stereo not shown)  CASOB herbicidal rating       2.0
1  CN1C(=O)C(F)SC1=Nc1cc(N2C(=O)C3=C(CCCC3)C2=O)c(F)cc1Cl (stereo not shown)  CASOB herbicidal rating       0.0
2  CC1SC(=Nc2cc(N3C(=O)C4=C(CCCC4)C3=O)c(F)cc2Cl)N(C)C1=O (stereo not shown)  CASOB herbicidal rating       0.0

Turning now to a further compound:
Incoming: Please give the measured CASOB herbicidal rating for this compound: CCOC(=O)CN1C(=O)C(CC)SC1=Nc1cc(-n2c(=O)cc(C(F)(F)F)n(C)c2=O)c(F)cc1Cl (stereo not shown)
Outgoing: 3.0

###

This listing pairs molecules with measured ZEAMX rating.
System: ZEAMX (Corn, Field)
Assay: Preemergence herbicidal evaluation
Assay type: in vivo, Zea mays
Settings: preemergence, 0.2500 kg/ha, rated 4-5 weeks after treatment, 0-9 scale
No unit in the answer, please; the number alone is enough.

>>> df
                                   molecule  readout_name  observed
0  CCS(=O)(=O)NC(=O)CC1SC(=Nc2cc(-n3c(=O)cc(C(F)(F)F)n(C)c3=O)c(F)cc2Cl)N(C)C1=O (centres unmarked)  ZEAMX rating       1.0

Incoming: Looking for the measured ZEAMX rating of `COC(=O)C1(N2C(=O)CSC2=Nc2cc(-n3c(=O)cc(C(F)(F)F)n(C)c3=O)c(F)cc2Cl)CCCCC1` , can you help?
Outgoing: 2.0

Incoming: # ZEAMX rating lookup, item C=CCN1C(=O)C(CC(=O)NOC)SC1=Nc1cc(-n2c(=O)cc(C(F)(F)F)n(C)c2=O)c(F)cc1Cl (centres unmarked)
Outgoing: 5.0

Incoming: Report ZEAMX rating for C=CCN1C(=O)C(CC(N)=O)SC1=Nc1cc(-n2c(=O)cc(C(F)(F)F)n(C)c2=O)c(F)cc1Cl (centres unmarked) please.
Outgoing: 6.0

Incoming: Entry CCOC(=O)CN1C(=O)C(CC(=O)OCCF)SC1=Nc1cc(-n2c(=O)cc(C(F)(F)F)n(C)c2=O)c(F)cc1Cl (centres unmarked) : reported ZEAMX rating = ?
Outgoing: 3.0
